Source: patent US8269043B2

System: circulating lymphocytes
Assay: Lymphopenia assay: circulating lymphocytes after oral gavage
Format: in vivo
Settings: Mus musculus, Lymphocyte, po, C57bl/6 male mice, oral gavage 0.5 and 5 mg/kg in 30% HPCD, blood 5 and 24 hours after administration
This listing pairs molecules with measured ED50.
OBSERVATION TYPE: ED50

>>> result_value("C[C@](N)(CO)c1ccc2cc(O[C@H]3CC[C@@H](c4ccccc4)CC3)ccc2c1")
"0.5 to 5 mg/kg"
>>> result_value("CC(F)(F)[C@H]1CC[C@H](Oc2ccc3cc([C@@](C)(N)CO)ccc3c2C(F)(F)F)CC1")
"< 0.5 mg/kg"
>>> result_value("CCc1ccccc1Oc1ccc2cc([C@@](C)(N)CO)ccc2c1")
"0.5 to 5 mg/kg"
>>> result_value("C[C@](N)(CO)c1ccc2cc(Oc3cccc(Br)c3)ccc2c1")
"> 5 mg/kg"
>>> result_value("CC(C)(C)[C@H]1CC[C@H](Oc2ccc3cc([C@@](C)(N)CO)ccc3c2-c2ccc(S(C)(=O)=O)cc2)CC1")
"> 5 mg/kg"
>>> result_value("C[C@](N)(CO)c1ccc2c(C(F)(F)F)c(O[C@H]3CC[C@@H](C4CCCC4)CC3)ccc2c1")
"> 5 mg/kg"
>>> result_value("CCCC[C@H]1CC[C@@H](Oc2ccc3cc(C(N)(CO)CO)ccc3c2)CC1")
"> 5 mg/kg"
>>> result_value("NC(CO)(CO)c1ccc2cc(Oc3ccc(OCc4ccccc4)cc3)ccc2c1")
"< 0.5 mg/kg"

---

This listing pairs molecules with measured ED50.
System: circulating lymphocytes
Assay: Lymphopenia assay: circulating lymphocytes after oral gavage
Assay type: in vivo
Conditions: Mus musculus, Lymphocyte, po, C57bl/6 male mice, oral gavage 0.5 and 5 mg/kg in 30% HPCD, blood 5 and 24 hours after administration
OBSERVATION TYPE: ED50

>>> result_value("Cc1ccc(Oc2ccc3cc([C@@](C)(N)CO)ccc3c2)cc1")
"0.5 to 5 mg/kg"
>>> result_value("CC(N)(CO)c1ccc2c(C(F)(F)F)c(O[C@H]3CC[C@H](C(C)(C)C)CC3)ccc2c1 (relative stereo)")
"< 0.5 mg/kg"
>>> result_value("CC(C)[C@H]1CC[C@H](Oc2ccc3cc([C@@](C)(N)CO)ccc3c2C(F)(F)F)CC1")
"< 0.5 mg/kg"
>>> result_value("C[C@](N)(CO)c1ccc2cc(Oc3cc(F)cc(F)c3)ccc2c1")
"0.5 to 5 mg/kg"
>>> result_value("NC(CO)(CO)c1ccc2cc(Oc3cccc(OCC4CCCCC4)c3)ccc2c1")
"< 0.5 mg/kg"
>>> result_value("CC(C)(C)[C@H]1CC[C@H](Oc2ccc3cc([C@@](C)(N)CO)ccc3c2C2CC2)CC1")
"< 0.5 mg/kg"
>>> result_value("CC(C)(C)c1ccc(Oc2ccc3cc([C@@](C)(N)CO)ccc3c2)cc1")
"0.5 to 5 mg/kg"
>>> result_value("CCCCCOc1cccc(Oc2ccc3cc(C(N)(CO)CO)ccc3c2)c1")
"< 0.5 mg/kg"

---

Test system: circulating lymphocytes
Assay: Lymphopenia assay: circulating lymphocytes after oral gavage
Assay type: in vivo
Conditions: Mus musculus, Lymphocyte, po, C57bl/6 male mice, oral gavage 0.5 and 5 mg/kg in 30% HPCD, blood 5 and 24 hours after administration
This listing pairs molecules with measured ED50.
OBSERVATION TYPE: ED50

>>> result_value("C[C@](N)(CO)c1ccc2cc(Oc3cccc(Cl)c3)ccc2c1")
"0.5 to 5 mg/kg"
>>> result_value("CCCC[C@H]1CC[C@H](Oc2ccc3cc([C@@](C)(N)CO)ccc3c2)CC1")
"< 0.5 mg/kg"
>>> result_value("C[C@](N)(CO)c1ccc2cc(O[C@H]3CC[C@@H](C(F)(F)F)CC3)ccc2c1")
"0.5 to 5 mg/kg"
>>> result_value("C[C@](N)(CO)c1ccc2cc(OC3CCC4CCCCC4C3)ccc2c1 (stereo partly drawn)")
"0.5 to 5 mg/kg"
>>> result_value("C[C@](N)(CO)c1ccc2c(C(F)(F)F)c(O[C@H]3CC[C@H](C4CCCCC4)CC3)ccc2c1")
"< 0.5 mg/kg"
>>> result_value("CCCCCOc1ccc(Oc2ccc3cc(C(N)(CO)CO)ccc3c2)cc1")
"< 0.5 mg/kg"
>>> result_value("CC(C)(C)[C@H]1CC[C@H](Oc2ccc3cc([C@@](C)(N)CO)ccc3c2-c2cccc(Cl)c2)CC1")
"> 5 mg/kg"
>>> result_value("C[C@](N)(CO)c1ccc2c(C(F)(F)F)c(OC3CCC4(CCCCC4)CC3)ccc2c1")
"< 0.5 mg/kg"
>>> result_value("Cc1ccc(Oc2ccc3cc([C@@](C)(N)CO)ccc3c2)cc1C")
"> 5 mg/kg"
>>> result_value("CC(C)(C)[C@H]1CC[C@H](Oc2ccc3cc([C@@](C)(N)CO)ccc3c2Br)CC1")
"< 0.5 mg/kg"
>>> result_value("C[C@@]1(c2ccc3c(C(F)(F)F)c(O)ccc3c2)COC(=O)N1")
"> 5 mg/kg"
>>> result_value("C[C@](N)(CO)c1ccc2c(C(F)(F)F)c(O[C@H]3CC[C@@H](C4CCCCC4)CC3)ccc2c1")
"> 5 mg/kg"
>>> result_value("CC(C)(C)[C@H]1CC[C@H](Oc2ccc3cc([C@]4(C)COC(=O)N4)ccc3c2)CC1")
"< 0.5 mg/kg"
>>> result_value("CC(C)(C)[C@H]1CC[C@H](Oc2ccc3cc([C@@](C)(N)CO)ccc3c2Cl)CC1")
"< 0.5 mg/kg"
>>> result_value("CC1(C)CCC(Oc2ccc3cc([C@@](C)(N)CO)ccc3c2)CC1")
"> 5 mg/kg"
>>> result_value("C=Cc1c(O[C@H]2CC[C@H](C(C)(C)C)CC2)ccc2cc([C@@](C)(N)CO)ccc12")
"< 0.5 mg/kg"
>>> result_value("CCCC(F)(F)[C@H]1CC[C@H](Oc2ccc3cc([C@@](C)(N)CO)ccc3c2)CC1")
"< 0.5 mg/kg"
>>> result_value("NC(CO)(CO)c1ccc2cc(Oc3cccc(C(F)(F)F)c3)ccc2c1")
"> 5 mg/kg"
>>> result_value("CC(C)(C)[C@H]1CC[C@H](Oc2ccc3cc([C@]4(C)COC(=O)N4)ccc3c2C(F)(F)F)CC1")
"< 0.5 mg/kg"
>>> result_value("CC(C)(C)[C@H]1CC[C@H](Oc2ccc3cc(C4(N)COC4)ccc3c2C(F)(F)F)CC1")
"< 0.5 mg/kg"
>>> result_value("CC(C)[C@H]1CC[C@@H](Oc2ccc3cc([C@@](C)(N)CO)ccc3c2C(F)(F)F)CC1")
"< 0.5 mg/kg"
>>> result_value("CCC(F)(F)[C@H]1CC[C@@H](Oc2ccc3cc([C@@](C)(N)CO)ccc3c2)CC1")
"> 5 mg/kg"
>>> result_value("NC(CO)(CO)c1ccc2cc(Oc3cccc(OCc4ccccc4)c3)ccc2c1")
"< 0.5 mg/kg"
>>> result_value("CN[C@@](C)(CO)c1ccc2cc(OC3CCC(C(C)(C)C)CC3)ccc2c1 (stereo partly drawn)")
"0.5 to 5 mg/kg"
>>> result_value("CC(C)(C)[C@H]1CC[C@H](Oc2ccc3cc([C@@](C)(N)CO)ccc3c2-c2ccccc2)CC1")
"> 5 mg/kg"
>>> result_value("CCOc1ccc(-c2c(O[C@H]3CC[C@H](C(C)(C)C)CC3)ccc3cc([C@@](C)(N)CO)ccc23)cc1")
"0.5 to 5 mg/kg"
>>> result_value("CCC(C)C1CCC(Oc2ccc3cc([C@@](C)(N)CO)ccc3c2)CC1 (stereo partly drawn)")
"0.5 to 5 mg/kg"
>>> result_value("C[C@](N)(CO)c1ccc2cc(Oc3cccc(OC(F)(F)F)c3)ccc2c1")
"0.5 to 5 mg/kg"
>>> result_value("C[C@](N)(CO)c1ccc2cc(O[C@H]3CC[C@H](C(F)(F)F)CC3)ccc2c1")
"0.5 to 5 mg/kg"
>>> result_value("CC(C)Cc1ccc(Oc2ccc3cc([C@@](C)(N)CO)ccc3c2)cc1")
"< 0.5 mg/kg"
>>> result_value("CC(F)(F)[C@H]1CC[C@H](Oc2ccc3cc([C@@](C)(N)CO)ccc3c2)CC1")
"< 0.5 mg/kg"
>>> result_value("CC(C)(C)C1CCC(Cc2ccc3cc([C@@](C)(N)CO)ccc3c2)CC1 (stereo partly drawn)")
"0.5 to 5 mg/kg"
>>> result_value("CC(C)CCOc1cccc(Oc2ccc3cc(C(N)(CO)CO)ccc3c2)c1")
"0.5 to 5 mg/kg"
